Test system: A2780 ovarian cancer cells
Assay: Cellular proliferation in A2780 cells, Cell Titer Glo (Biological Method 4)
Type: cell-based
Details: Homo sapiens; ovarian cancer cell line A2780, Biological Method 4
pEC50: −log10 of the molar value.
Quick reference for pEC50 among some molecules
Assay Metric: pEC50

                                    molecule            target_or_system  recorded_measurement
 0  Nc1cc(C(F)(F)F)c(-c2cc(N3CCOC(c4cccnc4)C3)nc(N3CCOCC3)n2)cn1 (centres unmarked)  A2780 ovarian cancer cells                > 5.00
 1  Nc1ncc(-c2cc(-c3cncc(O)c3)nc(N3CCOCC3)n2)cn1  A2780 ovarian cancer cells                > 6.00
 2  CS(=O)(=O)Nc1cccc(Nc2cc(-c3ccc(N)nc3)nc(N3CCOCC3)n2)c1  A2780 ovarian cancer cells                > 5.00
 3  Nc1ccc(-c2cc(Nc3ccc4nccnc4c3)nc(N3CCOCC3)n2)cn1  A2780 ovarian cancer cells                > 5.00
 4  NC(=O)c1cccc(-c2cc(-c3ccc(N)nc3)nc(N3CCOCC3)n2)c1  A2780 ovarian cancer cells                > 5.00
 5  Nc1ccc(-c2cc(Nc3cnc4ccc(O)cc4c3)nc(N3CCOCC3)n2)cn1  A2780 ovarian cancer cells                > 5.00
 6  CC(=O)N1CCC(Oc2ccc(Nc3cc(-c4cnc(N)nc4N)nc(N4CCOCC4)n3)cn2)CC1  A2780 ovarian cancer cells                > 5.00
 7  Nc1cc(C(F)(F)F)c(-c2cc(N3CCOC(C(=O)O)C3)nc(N3CCOCC3)n2)cn1 (centres unmarked)  A2780 ovarian cancer cells                > 4.60
 8  Nc1ccc(-c2cc(Sc3ccncc3)nc(N3CCOCC3)n2)cn1  A2780 ovarian cancer cells                > 5.00
 9   CNC(=O)c1cc(-c2cnc(N)nc2)nc(N2CCOCC2)n1  A2780 ovarian cancer cells                > 4.60
10  Nc1ccc(-c2cc(Nc3cccc(S(N)(=O)=O)c3)nc(N3CCOCC3)n2)cn1  A2780 ovarian cancer cells                > 5.00

----------
Reported IC50 values for a set of compounds
Biological target: UniProt P42336
Experiment: PI3K ATP depletion assay (Biological Method 1, Assay 3; KinaseGlo luminescence)
Assay type: biochemical
Settings: ATP depletion assay, Biological Method 1; read-out: PI3 Kinase Alpha, IC50
Assay Metric: IC50

In [3]: df
Out[3]:
                                   compound  recorded_measurement
0  Nc1ccc(-c2cc(Nc3ccccc3-n3ccnc3)nc(N3CCOCC3)n2)cn1 [Compound 355]                < 1 µM
1  Nc1ccc(-c2cc(N3CCOC(c4ccccc4)C3)nc(N3CCOCC3)n2)cn1 (centres unmarked) [Compound 371]                < 1 µM
2  Nc1cc(C(F)(F)F)c(-c2cc(NC3CCOCC3)nc(N3CCOCC3)n2)cn1 [Compound 322]                < 1 µM
3  N#Cc1cc(-c2cc(Nc3cnc4ccccc4c3)nc(N3CCOCC3)n2)cnc1N [Compound 366]               < 10 µM
4  CC(=O)Nc1ccccc1-c1cc(-c2ccc(N)nc2)nc(N2CCOCC2)n1 [Compound 253]                < 1 µM
5  Nc1cc(C(F)(F)F)c(-c2cc(Nc3cccc(S(=O)(=O)N4CCCCC4)c3)nc(N3CCOCC3)n2)cn1 [Compound 207]                < 1 µM
6  Nc1ccc(-c2cc(N3CCOC(C(=O)O)C3)nc(N3CCOCC3)n2)cn1 (centres unmarked) [Compound 339]               < 10 µM
7  COc1ccc(CCNc2cc(-c3ccc(N)nc3)nc(N3CCOCC3)n2)cc1 [Compound 302]               < 10 µM

----------
Listed here are compounds together with their documented IC50.
Molecular target: PI3 kinase alpha (Homo sapiens, UniProt P42336)
Sequence (P42336 whole entry): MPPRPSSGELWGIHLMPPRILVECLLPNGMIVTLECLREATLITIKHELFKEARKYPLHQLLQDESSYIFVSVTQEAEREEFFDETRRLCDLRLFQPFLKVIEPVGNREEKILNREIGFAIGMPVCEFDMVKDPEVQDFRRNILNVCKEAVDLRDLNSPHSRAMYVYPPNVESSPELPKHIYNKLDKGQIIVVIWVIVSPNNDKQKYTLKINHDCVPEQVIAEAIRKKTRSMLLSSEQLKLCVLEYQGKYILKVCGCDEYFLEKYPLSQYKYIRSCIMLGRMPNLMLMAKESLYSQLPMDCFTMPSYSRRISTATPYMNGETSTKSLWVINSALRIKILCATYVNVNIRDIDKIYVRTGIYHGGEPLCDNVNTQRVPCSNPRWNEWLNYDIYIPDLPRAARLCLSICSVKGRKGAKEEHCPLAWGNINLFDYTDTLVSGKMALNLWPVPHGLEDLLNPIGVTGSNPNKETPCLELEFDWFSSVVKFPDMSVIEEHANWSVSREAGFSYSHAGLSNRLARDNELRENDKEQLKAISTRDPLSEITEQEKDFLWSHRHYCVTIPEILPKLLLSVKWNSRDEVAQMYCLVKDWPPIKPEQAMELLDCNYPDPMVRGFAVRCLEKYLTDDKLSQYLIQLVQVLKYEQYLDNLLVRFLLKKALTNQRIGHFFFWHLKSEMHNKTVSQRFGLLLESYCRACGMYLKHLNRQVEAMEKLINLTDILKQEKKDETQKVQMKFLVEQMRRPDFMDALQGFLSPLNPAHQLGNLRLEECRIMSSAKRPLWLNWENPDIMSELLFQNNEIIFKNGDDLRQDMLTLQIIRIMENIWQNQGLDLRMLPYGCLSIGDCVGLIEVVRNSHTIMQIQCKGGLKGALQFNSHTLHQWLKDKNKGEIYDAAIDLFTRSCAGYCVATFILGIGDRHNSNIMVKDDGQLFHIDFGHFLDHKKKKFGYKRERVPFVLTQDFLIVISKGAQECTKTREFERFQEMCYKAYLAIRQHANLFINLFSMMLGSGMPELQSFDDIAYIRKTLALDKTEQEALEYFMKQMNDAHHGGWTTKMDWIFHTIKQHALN
Sequence (P27986 whole entry partner): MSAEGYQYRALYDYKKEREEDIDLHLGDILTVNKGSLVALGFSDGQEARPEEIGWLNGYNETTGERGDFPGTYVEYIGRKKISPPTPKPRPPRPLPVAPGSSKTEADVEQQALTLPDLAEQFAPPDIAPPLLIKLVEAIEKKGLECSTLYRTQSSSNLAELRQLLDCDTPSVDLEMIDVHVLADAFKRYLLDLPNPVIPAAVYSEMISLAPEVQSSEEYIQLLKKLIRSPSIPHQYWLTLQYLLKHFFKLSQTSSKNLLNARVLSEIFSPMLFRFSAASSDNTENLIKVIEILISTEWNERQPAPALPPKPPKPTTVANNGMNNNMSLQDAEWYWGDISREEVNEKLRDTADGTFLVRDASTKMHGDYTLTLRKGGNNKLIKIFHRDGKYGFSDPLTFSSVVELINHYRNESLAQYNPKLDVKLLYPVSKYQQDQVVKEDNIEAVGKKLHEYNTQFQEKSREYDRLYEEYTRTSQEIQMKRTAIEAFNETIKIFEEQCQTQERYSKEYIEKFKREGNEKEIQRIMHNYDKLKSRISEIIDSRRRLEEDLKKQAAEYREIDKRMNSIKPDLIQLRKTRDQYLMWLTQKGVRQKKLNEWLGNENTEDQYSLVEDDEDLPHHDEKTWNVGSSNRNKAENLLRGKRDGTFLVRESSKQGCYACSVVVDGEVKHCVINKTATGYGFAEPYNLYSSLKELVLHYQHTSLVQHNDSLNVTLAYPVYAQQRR
Assay: PI3K ATP depletion assay (Biological Method 1, Assay 3; KinaseGlo luminescence)
Format: biochemical
Conditions: ATP depletion assay, Biological Method 1; read-out: PI3 Kinase Alpha, IC50
Assay Metric: IC50

                                   compound  recorded_measurement
0  N#Cc1ccc(Nc2cc(-c3cnc(N)cc3C(F)(F)F)nc(N3CCOCC3)n2)cc1             < 1000 nM
1  Nc1cc(C(F)(F)F)c(-c2cc(N3CCS(=O)(=O)CC3)nc(N3CCOCC3)n2)cn1             < 1000 nM
2  CC(=O)c1cccc(-c2cc(-c3ccc(N)nc3)nc(N3CCOCC3)n2)c1             < 1000 nM
3  Nc1cc(C(F)(F)F)c(-c2cc(N3CCOC(c4ccccc4Cl)C3)nc(N3CCOCC3)n2)cn1 (centres unmarked)             < 1000 nM
4  Nc1cc(C(F)(F)F)c(-c2cc(N3CCOC(c4ccc(F)cc4)C3)nc(N3CCOCC3)n2)cn1 (centres unmarked)             < 1000 nM
5  CCN(CC)C(=O)Cc1csc(Nc2cc(-c3cnc(N)cc3C(F)(F)F)nc(N3CCOCC3)n2)n1             < 1000 nM
6  CC(C)Oc1ncccc1Nc1cc(-c2cnc(N)cc2C(F)(F)F)nc(N2CCOCC2)n1             < 1000 nM
7  Nc1cc(C(F)(F)F)c(-c2cc(Nc3ccc(OC4CCOC4)nc3)nc(N3CCOCC3)n2)cn1 (centres unmarked)             < 1000 nM

----------
Tested on: A2780 ovarian cancer cells
Test: Cellular proliferation in A2780 cells, Cell Titer Glo (Biological Method 4)
Format: cell-based
Conditions: Homo sapiens; ovarian cancer cell line A2780
pEC50: −log10 of the molar value.
Assay Metric: pEC50

In [3]: df
Out[3]:
                         compound_structure  recorded_measurement
0  COc1cccc2ncc(Nc3cc(-c4ccc(N)nc4)nc(N4CCOCC4)n3)cc12                > 6.00
1  Nc1cc(Cl)c(-c2cc(N3CCOCC3)nc(N3CCOCC3)n2)cn1                > 5.00
2  N#Cc1ccnc(Nc2cc(-c3ccc(N)nc3)nc(N3CCOCC3)n2)c1                > 5.00
3  Nc1ncc(-c2cc(OC3CCN(C(=O)OCc4ccccc4)CC3)nc(N3CCOCC3)n2)c(=O)[nH]1                > 6.00
4  CS(=O)(=O)c1ccc(Nc2cc(-c3cnc(N)nc3C(F)(F)F)nc(N3CCOCC3)n2)cn1                > 6.00
5  CC(=O)N1CCC(Oc2cc(-c3cnc(N)nc3N)nc(N3CCOCC3)n2)CC1                > 6.00
6  Nc1cc(C(F)(F)F)c(-c2ccnc(N3CCOCC3)n2)cn1                > 4.60
7  Nc1ncc(-c2cc(OCCCN3CCOCC3)nc(N3CCOCC3)n2)cn1                > 5.00

----------
Target: PI3 kinase alpha (Homo sapiens)
Test: PI3K ATP depletion assay (Biological Method 1, Assay 3; KinaseGlo luminescence)
Assay type: biochemical
Assay Metric: IC50

In [3]: df
Out[3]:
                         compound_structure  recorded_measurement
0  Cc1c(Nc2cnc3ccccc3c2)nc(N2CCOCC2)nc1-c1cnc(N)cc1C(F)(F)F             < 1000 nM

----------
System: A2780 ovarian cancer cells
Test: Cellular proliferation in A2780 cells, Cell Titer Glo (Biological Method 4)
Format: cell-based
Details: Homo sapiens; ovarian cancer cell line A2780, Biological Method 4
Protocol: In addition, many of the compounds of Table 1 were tested to determine their inhibitory activity in a cellular proliferation assay according to Biological Method 4. The ability of the compounds of the invention to inhibit cellular proliferation were determined by using Cell Titer Glo, a commercially available assay from Promega Corporation. […]
pEC50: −log10 of the molar value.
Assay Metric: pEC50

>>> print(df.to_string())
                                   compound            target_or_system  recorded_measurement
0  Nc1ncc(-c2cc(-c3ccc(F)nc3)nc(N3CCOCC3)n2)cn1 [Compound 278]  A2780 ovarian cancer cells                > 5.00
1  Nc1cc(-c2cnc(N)nc2)nc(N2CCOCC2)n1 [Compound 301]  A2780 ovarian cancer cells                > 4.60
2  Nc1cc(C(F)(F)F)c(-c2cc(Nc3cccc(S(=O)(=O)N4CCOCC4)c3)nc(N3CCOCC3)n2)cn1 [Compound 316]  A2780 ovarian cancer cells                > 5.00
3  Nc1ccc(-c2cc(-c3ccc(N)nc3)nc(N3CCOCC3)n2)cn1 [Compound 245]  A2780 ovarian cancer cells                > 5.00
